Measured hERG current change (%, negative = inhibition) at 10uM, listed per entry for reference.
Molecular target: human ether-à-go-go-related gene (hERG) potassium channel (human);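 note: peak tail current of the secondary pulse compared with the same well before compound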
Sequence (Q12809 whole entry, looked up): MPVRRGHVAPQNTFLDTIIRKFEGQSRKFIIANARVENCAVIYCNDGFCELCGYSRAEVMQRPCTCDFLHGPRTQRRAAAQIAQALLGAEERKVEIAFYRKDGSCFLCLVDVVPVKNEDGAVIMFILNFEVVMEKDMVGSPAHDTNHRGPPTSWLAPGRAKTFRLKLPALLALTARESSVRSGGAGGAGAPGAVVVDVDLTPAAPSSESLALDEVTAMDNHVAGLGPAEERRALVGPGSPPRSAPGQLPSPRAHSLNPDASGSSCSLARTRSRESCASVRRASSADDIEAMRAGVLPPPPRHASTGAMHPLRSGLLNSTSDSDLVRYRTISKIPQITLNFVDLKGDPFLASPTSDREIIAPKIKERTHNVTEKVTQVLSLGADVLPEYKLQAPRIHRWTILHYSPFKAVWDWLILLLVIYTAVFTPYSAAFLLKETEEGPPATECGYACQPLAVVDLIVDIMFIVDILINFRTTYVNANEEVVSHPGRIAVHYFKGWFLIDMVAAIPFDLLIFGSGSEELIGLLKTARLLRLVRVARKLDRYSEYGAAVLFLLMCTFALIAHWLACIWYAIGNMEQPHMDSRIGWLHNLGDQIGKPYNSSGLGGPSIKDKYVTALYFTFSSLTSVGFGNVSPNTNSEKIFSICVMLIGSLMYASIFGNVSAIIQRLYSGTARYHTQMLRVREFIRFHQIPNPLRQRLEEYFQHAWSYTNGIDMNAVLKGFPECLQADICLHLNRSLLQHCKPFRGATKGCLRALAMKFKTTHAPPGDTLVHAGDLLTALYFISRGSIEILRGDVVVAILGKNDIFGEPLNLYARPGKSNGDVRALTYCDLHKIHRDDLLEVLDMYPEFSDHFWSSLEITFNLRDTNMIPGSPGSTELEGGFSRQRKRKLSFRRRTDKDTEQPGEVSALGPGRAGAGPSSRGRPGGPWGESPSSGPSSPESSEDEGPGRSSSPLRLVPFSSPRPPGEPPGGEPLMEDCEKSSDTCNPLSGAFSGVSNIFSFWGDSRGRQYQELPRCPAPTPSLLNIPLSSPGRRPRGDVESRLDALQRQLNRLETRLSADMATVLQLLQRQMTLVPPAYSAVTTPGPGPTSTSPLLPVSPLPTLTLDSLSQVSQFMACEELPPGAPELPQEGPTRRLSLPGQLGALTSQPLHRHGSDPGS
Experiment: primary screen, population patch clamp on CHO cells stably expressing hERG; higher = less effect of the substance
Method: Briefly, Chinese hamster ovary (CHO) cells stably expressing the hERG channel were dislodged from tissue culture flasks and dispensed into PPC plates. […] During the recording, background leak currents were estimated by a 100 ms step to -80 mV from an initial holding potential of -70 mV and subtracted from the subsequent current measurement. The campaign was conducted in two phases using slight differences in recording protocol. […]
Hit rate of the full screen: of about 310,000 compounds, about 14,000 (4.5%) showed an effect of 50% or more. Effects have a minus sign here. The sample as a whole holds a higher share of strong results than the screen did.
The reply should be a number in %, with the unit left off.

Use the examples below as a reference point.
CCN(CC(=O)NCc1ccc(Cl)cc1)C(=O)CSc1ccc(Br)cc1; -79.2
Fc1cccc(Nc2nc3ccccc3n3cnnc23)c1; 4.55
Cn1c(CN2CCN(c3cccc(Cl)c3)CC2)nc2ccccc21; -44.7
Clc1ccc(Cl)c(OCCCCNCc2ccccc2)c1.O=C(O)C(=O)O; -71.5
CCN1CCn2c3c(c4cc(Cl)ccc42)CCCC31.Cl (stereo not drawn); -39.1

Query string: Hello, I am looking for reported hERG current change (%, negative = inhibition) at 10uM with human ether-à-go-go-related gene (hERG) potassium channel (human) for O=C(NCC(=O)N(c1cnc2ccccc2c1)C(C(=O)NC1CCCC1)c1ccncc1)c1ccco1 (stereo not drawn) . Could you help?
Result string: 8.74

Query string: Hello, I am looking for reported hERG current change (%, negative = inhibition) at 10uM with human ether-à-go-go-related gene (hERG) potassium channel (human) for Cl.OCCCCNCc1ccc(OCc2ccc(Cl)cc2Cl)cc1 . Could you help?
Result string: -51.6

Query string: Hello, I am looking for reported hERG current change (%, negative = inhibition) at 10uM with human ether-à-go-go-related gene (hERG) potassium channel (human) for CC(NC(=O)c1ccccc1F)c1nnc(SCC(=O)NC2=NCCS2)n1C (stereo not drawn) . Could you help?
Result string: 22.3

Query string: Hello, I am looking for reported hERG current change (%, negative = inhibition) at 10uM with human ether-à-go-go-related gene (hERG) potassium channel (human) for O=C(CSc1nc2ccccc2c(=O)[nH]1)N1CCN(c2ccccc2F)CC1 . Could you help?
Result string: 9.44

Query string: Hello, I am looking for reported hERG current change (%, negative = inhibition) at 10uM with human ether-à-go-go-related gene (hERG) potassium channel (human) for CCN(CC(=O)NCc1ccc(Cl)cc1)C(=O)c1oc2ccccc2c1C . Could you help?
Result string: -54.5

Source: paper PMC4336329
